Reported kon values are given for each entry in this list.
target: biotinylated soluble HLA-A2/WT1_(126) (…) complex (Homo sapiens, HLA-A*02:01, biotin (the complex is biotinylated; site not stated)); experiment: SPR

BINDER	kon, M⁻¹ s⁻¹
S3.1 scFv (scFv, V domains shown) VH: EVQLLESGGGLVQPGGSLRLSCAASGFTFSSYAMSWVRQAPGKGLEWVSLIDPWGQETLYADSVKGRFTISRDNSKNTLYLQMNSLGAEDTAVYYCAKLTGRFDYWGQGTLVTVSS VL: DIQMTQSPSSLSASVGDRVTITCRASQSISSYLNWYQQKPGKAPKLLIYSASQLQSGVPSRFSGSGSGTDFTLTISNLQPEDFATYYCQQGPGTPNTFGQGTKVEIK	148000
S3.6 scFv (scFv, V domains shown) VH: EVQLLESGGGLVQPGGSLRLSCAASGFTFSSYAMSWVRQAPGKGLEWVSLIDPWGQETLYADSVKGRFTISRDNSKNTLYLQMNSLRAEDTAVYYCAKLTGRFDYWGQGTLVTVSS VL: DIQMTQSPSSLSASVGDRVTITCRASQSISNYLNWYQQKPGKAPKLLIYSASQLQSGVPSRFSGSGSGTVFTLTISSLQPEDFATYYCQQGPGTPNTFGQGTKVEIK	126000
Q1L scFv (scFv, V domains shown) VH: EVQLLESGGGLVQPGGSLRLSCAASGFTFSSYAMSWVRQAPGKGLEWVSLIDPWGQETLYADSVKGRFTISRDNSKNTLYLQMNSLRAEDTAVYYCAKLTGRFDYWGQGTLVTVSS VL: DIQMTQSPSSLSASVGDRVTITCRASQSISSYLNWYQQKPGKAPKLLIYSASQLQSGVPSRFSGSGSGTDFTLTISSLQPEDFATYYCQQGPGTPNTFGQGTKVEIK	94300
Q2L scFv-Fc (Fc fusion) VH: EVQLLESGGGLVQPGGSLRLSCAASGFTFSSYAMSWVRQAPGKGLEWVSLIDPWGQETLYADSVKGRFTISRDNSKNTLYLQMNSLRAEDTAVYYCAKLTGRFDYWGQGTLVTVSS VL: DIQMTQSPSSLSASVGDRVTITCRASQSISSYLNWYQQKPGKAPKLLIYSASLLQSGVPSRFSGSGSGTDFTLTISSLQPEDFATYYCQQGPGTPNTFGQGTKVEIK	484000
